Values compiled from patent US11071769B2.

Tested on: MRSA isolate ATCC BAA-1556
Assay: MIC, CLSI-guided broth susceptibility testing, MRSA 1556
Type: cell-based, Staphylococcus aureus
Details: MRSA isolate ATCC BAA-1556
measurement_type: MIC Values, MRSA 1556 (µg/mL)
Form entry: value (µg/mL) — number only.

Item: CCCCCCCCCC(=O)NCCNC1(C)CC(OC2C(Oc3c4cc5cc3Oc3ccc(cc3Cl)C(O)C3NC(=O)C(NC(=O)C5NC(=O)C(CC(N)=O)NC(=O)C(NC(=O)C(CC(C)C)NC)C(O)c5ccc(c(Cl)c5)O4)c4ccc(O)c(c4)-c4c(O)cc(O)cc4C(C(=O)O)NC3=O)OC(CO)C(O)C2O)OC(C)C1O (stereo not drawn) [RV56] | MIC Values, MRSA 1556: 0.063

Lab note: measured MIC Values, MRSA 1556 of CCCCCCCCCCCC(=O)OCCNC1(C)CC(OC2C(Oc3c4cc5cc3Oc3ccc(cc3Cl)C(O)C3NC(=O)C(NC(=O)C5NC(=O)C(CC(N)=O)NC(=O)C(NC(=O)C(CC(C)C)NC)C(O)c5ccc(c(Cl)c5)O4)c4ccc(O)c(c4)-c4c(O)cc(O)cc4C(C(=O)O)NC3=O)OC(CO)C(O)C2O)OC(C)C1O (stereo not drawn) [RV65] was 0.094

Continuing:
Query CCCCCCCC(=O)OCCNC1(C)CC(OC2C(Oc3c4cc5cc3Oc3ccc(cc3Cl)C(O)C3NC(=O)C(NC(=O)C5NC(=O)C(CC(N)=O)NC(=O)C(NC(=O)C(CC(C)C)NC)C(O)c5ccc(c(Cl)c5)O4)c4ccc(O)c(c4)-c4c(O)cc(O)cc4C(C(=O)O)NC3=O)OC(CO)C(O)C2O)OC(C)C1O (stereo not drawn) [RV90] yields MIC Values, MRSA 1556 of 0.250
